Data credit: patent US20250002563A1

Provide the reported pIC50 of each item.
# MEASURED_TARGET: RBDSARS-CoV (SARS-CoV S protein residues 318-510, C-terminal His-tag) (SARS-CoV, UniProt P59594 318-510)
# EXPERIMENTAL_DETAILS: ELISA
pIC50: −log10 of the molar value.

# get_value(readout='pIC50', item= 5p-60 (VHH, class II(A) psNb) VHH: QVQLVESGGGLVQAGGSLRLSCAVSGRTISTFGMGWFRQAPGKEREFVATITRDEDMLLYADSVKGRFTISRDTAKNMVFLQMNSLKIEDTALYYCAVRRDSSWGYSRQSTEYDYWGQGTQVTVSS )
> 8.00

# get_value(readout='pIC50', item= 5p-174 (VHH) VHH: HVQLVESGGGLVQTGASLRLSCKASGRTFSTYTISWFRQAPGKEREFVGGVATSGGTTYYGDSVQGRFTISRDNAKNEVYLQMNSVKPEDTAVYICAARSVIQDTVVISNPIHFEYWGQGTQVTVSS )
> 8.00

# get_value(readout='pIC50', item= 5p-3 (VHH) VHH: QVQLVESGGGLVQAGDSLRLSCAASGRTISTFPMGWFRQAPGKEREFVATITRTGFGTYYSDSVKGRFTISRDNAKNTVFLQMNSLKPEDTALYYCAAAKTTDWVTRAPREMHEYAYWGQGTQVTVSS )
7.00 to 8.00

# get_value(readout='pIC50', item= 5p-119 (VHH) VHH: QVQLVESGGGLVQAGGSLRLSCAASRRTFSNYAAGWFRQAPGKEREFVAVIEWNGESAYYADSVKGRFTISRDNAKNTVYLQMNRLKPEDTAIYICAIGGNHYSRSKYYIADEYDYWGQGTQVTVSS )
> 8.00

# get_value(readout='pIC50', item= 4P-3 (VHH) VHH: DVQLVESGGGLVQAGDSLRLSCAASGRTFGNYVLDWFRQAPGKEREFVASITQTGFGTYYADAVKGRFTISRDNAKNTMYLQMNSLKPEDTAVYYCAADFTAQNGGIRNPTYWGQGTQVTVSS )
5.10 to 6.00

Return reported pIC50 values for all items listed beneath this line.
1. 5p-182 (VHH, class I psNb) VHH: EVQLVESGGGLVQTGGSLRLSCALSGYTFSIFPTAWFRQAPGKEREFVAGIRWNGSTRDYTEYADFVKGRFTISRDNAKNMVYLQMISLKPEDTALYYCAASDGVIDGTNANAYRYWGQGTQVTVSS
2. 5p-1 (VHH) VHH: QVQLVESGGGLVQAGGSLRLSCAVSGRTGNRWPMGWFRQAPGKEREFVATISWSDSRTYYADSVKGRFTISRDNAKNTVFLQMASLKPEDTAVYYCAAAHARVYGANWSSSNRDDYDSWGQGTQVTVSS

["5.10 to 6.00", "6.00 to 7.00"]

# get_value(readout='pIC50', item= 4P-44 (VHH) VHH: DVQLVESGGGLVQAGGSLRLSCAASGRTFSRYAAGWFRQAPGKEREFVAVIEWNGDSAYYADSVKGRFTISRDNAKNTVYLQMNRLKPEDTAVYICAVGGNHYSRSKYYTADEYDYWGQGTQVTVSS )
6.00 to 7.00
